experimental protocol: optical density change of DRC41 E. coli – strain DRC41, OD650, 24 h, E. coli filamentation project, primary screen (AID 1093);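 also: MC1000 strain lacking acrAB efflux and sulA so SOS filamentation is blocked; test concentration not given here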
experimental setup: E. coli DRC41 growth, higher = more signal, called active from +8 up or from −8 down
quantity: z-score
API note: the answer field is a bare number with no unit suffix.

Fill in: z-score of C#CCN(C/C=C/c1ccccc1)[C@H](CO)c1ccccc1 is ___ 0.408

Now this one: COCC(=C=CC[C@H](O)c1cccc(OCCO)c1)CCO 0.0234

Queued: CC(=O)n1cc(C(O)C2C=CC3C(=O)NC(=O)C3N2Nc2ccccn2)c2ccccc21 (stereo not given) -0.965

Next compound up: C=CCOC(=O)[C@H]1[C@@H]2C(=O)O[C@@H](c3ccccc3)[C@@H](c3ccccc3)N2[C@@H](c2ccc(OCCOC(=O)[C@@H]3C[C@@H]4C(=O)N5CCC[C@H]5C(=O)N4[C@@H]3c3cccc(OCCO)c3)cc2)[C@]12C(=O)Nc1ccc(I)cc12 -0.443

Also check [N-]=[N+]=NCc1ccccc1[C@@H]1OC(c2ccc(OCCCO)cc2)=N[C@]1(CCS(=O)(=O)c1ccccc1)C(N)=O 0.901

Thanks! And CC[C@@H]1C=C(C(=O)O)[C@H](c2ccc(C)cc2)N1S(=O)(=O)c1ccc(C)cc1 ? -0.552

Moving on to the next compound: CC(C)Cc1ccc(CN2CC[C@@H](N)C2)cc1 -4.43

# repeat for CCCCCN1CC=CC23O[C@@H]4C=CCOC(=O)[C@@H]4[C@H]2C(=O)N(C(C)CO)[C@@H]3C1=O (stereo not given in full) 0.266

Next entry: COCCCNC(=O)[C@@]1(CCS(=O)(=O)c2ccccc2)N=C(c2ccc(OCCCO)cc2)O[C@H]1c1ccccc1N=[N+]=[N-] 0.299

Follow-up entry: CC(C)[C@@H](C(=O)O)n1cc(C2(O)CCCCC2)nn1 0.616

Now this one: O=C1O[C@@H](c2ccccc2)[C@@H](c2ccccc2)N2[C@@H](c3ccccc3OCCO)[C@]3(C(=O)Nc4ccccc43)[C@@H](C(=O)O)[C@H]12 -0.413

Again, but for OCC1C=C(/C=C/c2ccccc2)CN1Cc1ccccc1Br (stereo not given) 1.58

Please do the same for COC(=O)[C@@]1(CCC(=O)OC(C)(C)C)N=C(c2ccc(OCCCO)cc2)O[C@H]1c1ccccc1 as well. -2.76

Another: O=C1C2C=CC(C(O)c3ccc(F)cc3)N(Nc3ccc([N+](=O)[O-])cc3)C2C(=O)N1c1ccccc1 (stereo not given) -0.848

Let us now turn to COC(=O)C(CC#Cc1ccc2c(c1)[C@]1(C(=O)N2)[C@H](c2ccc(O)cc2)N2[C@H](c3ccccc3)[C@H](c3ccccc3)OC(=O)[C@H]2[C@@H]1C(=O)N1CCN(c2ncccn2)CC1)C(=O)OC 0.248

Also need CCCC[C@@H]1C[C@H]1[C@@H](NC(=O)c1cccnc1)c1ccc(Cl)cc1 , thanks. -3.26

Again, but for Cc1ccc(S[C@]2(C(=O)O)CC(=O)N(C(C)C)[C@@H]2c2ccc(CO)cc2)cc1 1.66

Then COc1ccc(C(=O)Nc2ccc(CN3C(=O)[C@]4(O[C@H](CC(=O)N5CCC[C@H]5CO)[C@@H]([Si](C)(C)c5ccc(OC)cc5)[C@@H]4C)c4ccccc43)cc2)cc1 ? -0.481

Okay, and CCCC=C(CCC)[C@@H](NS(=O)(=O)c1ccc(Cl)cc1)c1ccc(C(=O)OC)cc1 ? 0.0177

Consider next the compound CCOC(=O)C[C@H]1[C@H](OC(=O)c2ccc(C(=O)c3ccccc3)cc2)[C@@H](NC(=O)c2ccccc2)c2cc(OCCCO)ccc2N1C(=O)c1ccccc1 in the same way. -0.448

Same again, this time with COc1ccc([Si](C)(C)[C@@H]2[C@@H](CCO)O[C@]3(C(=O)N(Cc4cccc(N5CCOC5=O)c4)c4ccccc43)[C@H]2C)cc1 0.516

Field entry: C=CCN1C(=O)[C@]2(Cc3ccccc3)N=C(c3ccc(OCCCO)cc3)O[C@@H]2c2ccccc21 0.482

Try COCCOC(=O)N1C(=O)[C@@]2(c3cc(C#CC4=CCCCC4)ccc31)[C@H](c1ccc(OCCO)cc1)N1[C@H](c3ccccc3)[C@H](c3ccccc3)OC(=O)[C@H]1[C@@H]2C(=O)N1CCc2cc(OC)c(OC)cc2C1 next. 1.96

Queued: CCOC(=O)C[C@H]1[C@H](OC(=O)c2ccc(-c3ccccc3)cc2)[C@@H](NC(=O)c2ccccc2)c2cc(OCCCO)ccc2N1C(=O)Cc1ccc(OC)cc1 0.258

// repeat for Cc1ccc(C2C3C(=O)CC4C(=O)N(c5ccccc5)C(=O)C4C3CN2S(=O)(=O)c2ccc(C)cc2)cc1 (stereo not given) and report 0.0125

Also need CC(C)CCC[C@@H](C)[C@H]1CC[C@@]2(C)C3=C(CC[C@]12C)[C@@]1(C)CC[C@H](OC(=O)c2ccc(C(F)(F)F)nc2)C(C)(C)C1CC3 (stereo not given in full) , thanks. 3.05

Try NC(=O)[C@@H]1[C@H]2C(=O)O[C@H](c3ccccc3)[C@H](c3ccccc3)N2[C@H](c2ccc(O)cc2)[C@@]12C(=O)Nc1ccc(C#CC3=CCCCC3)cc12 next. -0.716

Note, next up: CN1C(=O)C2C=CC(C(O)c3c(F)cccc3Cl)N(NC(=O)OC(C)(C)C)C2C1=O (stereo not given) -0.597

Record: O[C@@H](Cc1ccccc1)[C@@H](/C=C/C1CC1)NCc1cccc(Cl)c1 -0.59

And what about the compound O=C(O)[C@@]1(CCS(=O)(=O)c2ccccc2)N=C(c2ccc(OCCCO)cc2)O[C@H]1c1ccccc1 ? 0.712

* * *

experimental protocol: basal CRE-LacZ reporter activity in PC12 – cell-based, unstimulated, primary screen (AID 1145)
experimental setup: no forskolin, luminescence, 4.5 h, higher = more signal, called active from +8 up or from −8 down
Lab note: anything with z-score at or over -0.7 counts as t; the rest go in f.

Quick check: does CC(C)CCC[C@@H](C)[C@H]1CC[C@@]2(C)C3=C(CC[C@]12C)[C@@]1(C)CC[C@H](OC(=O)c2ccc(C(F)(F)F)nc2)C(C)(C)C1CC3 (some centres undefined) have z-score greater than or equal to -0.7? t

Cool, now O=C1OCCC=C[C@H]2OC34C=CCN(Cn5nnc6ccccc65)C(=O)[C@H]3N(CCO)C(=O)[C@@H]4C12 (some centres undefined) f

And COCCOC(=O)N1C(=O)[C@@]2(c3ccccc31)[C@H](C(N)=O)[C@H]1C(=O)O[C@H](c3ccccc3)[C@H](c3ccccc3)N1[C@@H]2c1ccc(O)cc1 ? t

Proceed to O=C(CS)NCCCCCNC(=O)[C@H]1C[C@H]2C(=O)NCC(=O)N2[C@H]1c1cccc(OCCO)c1 f

Entry to check: C=C(CCCC)/C(=C/C[C@@H](OC(C)=O)c1cccc(OCCO)c1)c1cnc2ccccc2c1 t

Entry CCCCCCCCCCC(O)C1C=CC2C(=O)NC(=O)C2N1Nc1ccc(Cl)cc1Cl (centres undefined) please t

// repeat for O=C1C[C@@](C(=O)NCc2ccccc2)(c2ccc([N+](=O)[O-])cc2)[C@@H](c2ccc(CO)cc2)N1CC12CC3CC(CC(C3)C1)C2 and report t

For CC(C)CNC(=O)[C@@]1(Cc2ccccc2I)c2ccccc2C(=O)N(Cc2ccccc2C(F)(F)F)[C@H]1c1ccc(CO)cc1 then? t

Same thing, different compound: C=CCNC(=O)[C@H]1[C@@H]2C(=O)O[C@@H](c3ccccc3)[C@@H](c3ccccc3)N2[C@@H](c2ccc(OCCO)cc2)[C@]12C(=O)Nc1ccc(C#CCC(C(=O)OC)C(=O)OC)cc12 f

Subsequent entry: Cc1ccc([C@H]2C(C(=O)O)=CCN2S(=O)(=O)c2ccc(C)cc2)cc1 t

Also CO[C@H]1O[C@H](CO)[C@@H](OC(=O)Nc2ccc(Br)cc2)[C@@H]2OC(=O)[C@H](Cc3cccc(Br)c3)C/C=C/C[C@@H](Cc3cccc(Br)c3)C(=O)O[C@@H]12 ? f

Same question for Cc1ccc(C2C3C(=O)CC4C(=O)N(c5ccccc5)C(=O)C4C3CN2S(=O)(=O)c2ccc(C)cc2)cc1 (centres undefined) please. f

COc1cc2c(cc1O)C(c1cccs1)N(Cc1ccc([N+](=O)[O-])o1)CC2 (centres undefined) , same question. t

For COC(=O)C(CC#Cc1ccc2c(c1)[C@]1(C(=O)N2)[C@H](c2ccc(O)cc2)N2[C@H](c3ccccc3)[C@H](c3ccccc3)OC(=O)[C@H]2[C@@H]1C(=O)N1CCN(c2ncccn2)CC1)C(=O)OC then? t

* * *

experimental protocol: plasmodial surface anion channel blockers, osmotic lysis – cell-based, P. falciparum Indochina, OD700, 18 h, primary screen (AID 1157)
experimental setup: P. falciparum Indochina infected erythrocytes, osmotic lysis OD700, 18 h; higher = more signal, called active from +8 up or from −8 down
For each entry below, report its z-score value.
// print number alone

For the molecule shown here, C=CC[C@]1(C(=O)N2CCOCC2)N=C(c2ccc(OCCCO)cc2)O[C@H]1c1ccccc1N=[N+]=[N-] , give the reported z-score. 7.61

Please give the result for Cc1ccc(C2C3C(=O)CC4C(=O)N(c5ccccc5)C(=O)C4C3CN2S(=O)(=O)c2ccc(C)cc2)cc1 (centres undefined) too. 0.438

What do you get for CC(C)CCC[C@@H](C)[C@H]1CC[C@@]2(C)C3=C(CC[C@]12C)[C@@]1(C)CC[C@H](OC(=O)c2ccc(C(F)(F)F)nc2)C(C)(C)C1CC3 (some centres undefined) ? -2.61

Continue with COc1cc2c(cc1OC)CN(C(=O)[C@H]1[C@@H]3C(=O)O[C@@H](c4ccccc4)[C@@H](c4ccccc4)N3[C@@H](c3ccccc3OCCO)[C@]13C(=O)Nc1ccc(C#CCCO)cc13)CC2 0.835

O=C1C2C=CC(C(O)c3ccc4c(c3)OCO4)N(Nc3ccc([N+](=O)[O-])cc3)C2C(=O)N1c1ccccc1 (centres undefined) , same question. 1.66

// same read-out, input: C[N+](C)(C)CCCCCCNC(=O)[C@H]1C[C@H]2C(=O)N[C@@H](Cc3ccccc3)C(=O)N2[C@H]1c1cccc(OCCO)c1 0.719

Queued: CC1CC/C=C\[C@H]2OC34C=CCN(Cn5nnc6ccccc65)C(=O)[C@H]3N(CCCCCO)C(=O)[C@@H]4C2C(=O)O1 (some centres undefined) 0.626

Please do the same for COC(=O)[C@@]1(Cc2ccccc2)[C@H]2c3cc(C(=O)N4CCCC4)n(Cc4c(CO)[nH]cc(C)c4=O)c3C[C@H]2CN1C(=O)c1ccccc1 as well. 0.397

Now give it for [N-]=[N+]=NCc1ccccc1C[C@@]1(C(=O)NCC(O)CO)N=C(c2ccc(OCCCO)cc2)O[C@@H]1c1ccccc1 (some centres undefined) too. 2.07

What do you get for COC(=O)c1c(CC[C@@H](CO)NC(=O)N[C@H](Cc2ccccc2)Cn2cc(-c3ccccn3)nn2)oc(C(C)=O)c1C(=O)OC ? 1.41

Another molecule to check: COC(=O)[C@@]1(Cc2ccccc2)[C@H]2c3cc(C(=O)N(C)C)n(Cc4ccc(OC)c(OC)c4)c3C[C@H]2CN1C(=O)c1ccccc1 1.11

Same question for CC(C)NC(=O)[C@@]1(Cc2ccccc2I)c2ccccc2C(=O)N(Cc2ccccc2Cl)[C@H]1c1ccc(CO)cc1 please. 1.06

Can you check NCCCCCNC(=O)[C@H]1C[C@H]2C(=O)N3CCC[C@H]3C(=O)N2[C@H]1c1ccc(O)cc1 next? 0.0061

Another molecule to check: O=C1O[C@@H](c2ccccc2)[C@@H](c2ccccc2)N2[C@@H](c3ccc(OCCO)cc3)[C@]3(C(=O)Nc4ccc(C#CCCO)cc43)[C@@H](C(=O)NC[C@H](O)c3ccccc3)[C@H]12 0.688

Data provenance is PubChem BioAssay.
